Tested on: blood platelet (PAF-induced aggregation)
ASSAY PROTOCOL: Inhibitory effect in vitro against PAF-induced blood platelet aggregation
Assay type: cell-based
PROTOCOL CONDITIONS: Oryctolagus cuniculus, 5 min; rabbit platelet rich plasma; l-C16:0 PAF final 10^-8 ~3×10^-8 M; 5 min observation
pIC50: −log10 of the molar value.
METRIC NAME: pIC50

A = COc1cc(C(=O)N2CCN(C(=O)/C=C(/c3cccc(C)c3)c3ccc(Cl)c(Cl)c3)CC2)cc(OC)c1OC [Example 37]
B = CCCOc1cccc(/C(=C/C(=O)N2CCN(C(=O)c3cc(OC)c(OC)c(OC)c3)CC2)c2cccc(Cl)c2)c1 [Example 70]
C = COc1ccc(C(=CC(=O)N2CCN(C(=O)c3cc(OC)c(OC)c(OC)c3)CC2)c2ccc(OC)c(OC)c2)cc1OC [Example 28]
D = COc1cc(C(=O)N2CCN(C(=O)C=C(c3cccc(Cl)c3)c3cccc(Cl)c3)CC2)cc(OC)c1OC [Example 41]
E = COc1ccc(/C(=C/C(=O)N2CCN(C(=O)c3cc(OC)c(OC)c(OC)c3)CC2)c2cc(C)cc(C)c2)cc1 [Example 82]
Q: Please give the order of these compounds when sorted by pIC50, largest value leading. Thanks in advance for listing the labels in the requested order.
Result: E, B, D, A, C
(E: 8.00, B: 7.52, D: 7.17, A: 6.96, C: 6.64)

---

System: blood platelet (PAF-induced aggregation)
ASSAY PROTOCOL: Inhibitory effect in vitro against PAF-induced blood platelet aggregation
Type: cell-based
PROTOCOL CONDITIONS: Oryctolagus cuniculus, 5 min; rabbit platelet rich plasma; l-C16:0 PAF final 10^-8 ~3×10^-8 M; 5 min observation
METRIC NAME: IC50 (nM)

Q: Annotate the compound COc1cc(C(=O)N2CCN(C(=O)/C=C(/c3ccccc3)c3cccs3)CC2)cc(OC)c1OC with its measured IC50.
Result: 260

P = COc1ccc(/C(=C/C(=O)N2CCN(C(=O)c3cc(OC)c(OC)c(OC)c3)CC2)c2cccc(Cl)c2Cl)cc1
Q = COc1cc(C(=O)N2CCN(C(=O)C=C(c3ccccc3)c3ccccc3)CC2)cc(OC)c1OC
R = COc1ccc(/C(=C\C(=O)N2CCN(C(=O)c3cc(OC)c(OC)c(OC)c3)CC2)c2ccc(C)cc2)cc1OC
Q: Rank descending by IC50. Field: ranking. Enter the labels in the order requested.
Result: Q, R, P

---

SYSTEM UNDER TEST: PAF-receptor (Oryctolagus cuniculus)
Construct: is regarded as a PAF-receptor membrane fraction
Sequence (G1TEI7 1-342): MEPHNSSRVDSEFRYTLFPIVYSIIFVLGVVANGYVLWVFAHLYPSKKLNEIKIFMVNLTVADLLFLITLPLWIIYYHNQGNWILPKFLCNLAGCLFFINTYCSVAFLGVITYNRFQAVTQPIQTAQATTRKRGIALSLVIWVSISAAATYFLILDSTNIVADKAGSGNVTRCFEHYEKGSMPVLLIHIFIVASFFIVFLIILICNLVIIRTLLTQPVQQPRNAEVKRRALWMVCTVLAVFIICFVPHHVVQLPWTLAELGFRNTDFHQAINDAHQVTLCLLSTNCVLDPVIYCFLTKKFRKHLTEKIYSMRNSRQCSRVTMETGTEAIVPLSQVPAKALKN
ASSAY PROTOCOL: Inhibitor effect on PAF-receptor binding
PROTOCOL CONDITIONS: specific binding of ^3H-PAF; rabbit platelet PAF-receptor membrane fraction; read-out: Inhibition of receptor binding (IC50 M)
METRIC NAME: IC50 (nM)

Please review the entries below; each comes with its answer.
Q: # return recorded IC50 for input COc1ccc(/C(=C/C(=O)N2CCN(C(=O)c3cc(OC)c(OC)c(OC)c3)CC2)c2ccc(Cl)cc2)cc1OC
Result: 43

Q: Check the records and state IC50 for COc1ccc(/C(=C/C(=O)N2CCN(C(=O)c3cc(OC)c(OC)c(OC)c3)CC2)c2cc(Cl)cc(Cl)c2)cc1
Result: 14

Q: Tell me its IC50 given COc1ccc(/C(=C/C(=O)N2CCN(C(=O)c3cc(OC)c(OC)c(OC)c3)CC2)c2cccc(Cl)c2)cc1 as the entry.
Result: 16

A = CCc1ccc(/C(=C/C(=O)N2CCN(C(=O)c3cc(OC)c(OC)c(OC)c3)CC2)c2cccc(Cl)c2)cc1
B = COc1ccc(/C(=C/C(=O)N2CCN(C(=O)c3cc(OC)c(OC)c(OC)c3)CC2)c2cc(F)cc(F)c2)cc1
C = COc1ccc(/C(=C/C(=O)N2CCN(C(=O)c3cc(OC)c(OC)c(OC)c3)CC2)c2ccccc2Cl)cc1
Q: Highest IC50 first, then in falling order down to the smallest. Order the labels as requested and list them.
Result: B, C, A
(B: 76 nM, C: 20 nM, A: 14 nM)
